target-or-system: E. coli DNA gyrase (Escherichia coli (strain K12), UniProt P0AES4+P0AES6)
experiment-summary: Agarose gel-based DNA gyrase inhibition assay
Assay type: biochemical
assay-conditions: Table 8; read-out: IC50 Gyrase Gel-based
pIC50: −log10 of the molar value.
readout-label: pIC50

In [3]: df
Out[3]:
                                   molecule  reading_qualifier  assay_value
0                   O=C(O)c1cc(O)c(O)c(O)c1                  <         3.30
1  CCCCCCCCOC(=O)c1cc(O)c(O)c(O)c1 [Octyl gallate, octyl gallate]                  =         4.30
2  O=C(Oc1ccccc1)c1cc(O)c(O)c(O)c1 [Phenyl gallate, phenyl gallate]                  <         4.00
3  CCCCOC(=O)c1cc(O)c(O)c(O)c1 [Butyl gallate, butyl gallate]                  <         4.00
4  CCCCCCCCCCCCOC(=O)c1cc(O)c(O)c(O)c1 [Dodecyl gallate, dodecyl gallate]                  =         4.82

---

The following compounds are shown together with reported MIC values.
Test system: MRSA
experiment-summary: Minimum inhibitory concentration, broth microdilution
assay-conditions: Staphylococcus aureus, MRSA, read-out: Minimum Inhibitory Concentration S.aureus MRSA
readout-label: MIC (µM)

>>> print(df.to_string())
                                   compound  assay_value
0  N=C(N)Nc1nc(-c2ccccc2)c2cc(Cl)ccc2n1 [Compound 154]           25
1  O=C(O)c1ccc(/N=N/C2C(O)=Nc3ccc(Cl)cc32)cc1 (stereo not drawn) [Compound 126]          100
2  O=[N+]([O-])c1cc(/C=N/Nc2nc3ccccc3[nH]2)c(O)cc1O [Compound 159]          100
3  COC(=O)c1c(NC(=O)CC2Nc3ccccc3NC2=O)sc(C)c1C (stereo not drawn) [Compound 55]           25
4  Cc1ccc2nc3n(c2c1C)C/C(=C/c1ccc(-c2ccccc2C(=O)O)o1)[S+]3[O-] (stereo not drawn) [Compound 155]           50
5  O=C(O)C(Cc1ccccc1)N1C(=O)/C(=C\C=C\c2ccco2)SC1=S (stereo not drawn) [Compound 157]          200
6  Cc1cccc2c1N=C(O)C2/N=N/c1ccc(C(=O)O)cc1 (stereo not drawn) [Compound 128]           50
7  O=C(O)c1ccc(/N=N/C2C(O)=Nc3ccc(F)cc32)cc1 (stereo not drawn) [Compound 127]           50
8  O=C1/C(=C\c2ccc(O)cc2)SC(=S)N1Cc1ccccc1 [Compound 44]           25

---

target-or-system: E. coli DNA topoisomerase IV (Escherichia coli (strain K12), UniProt P0AFI2+P20083)
Sequence (P0AFI2 whole entry, looked up): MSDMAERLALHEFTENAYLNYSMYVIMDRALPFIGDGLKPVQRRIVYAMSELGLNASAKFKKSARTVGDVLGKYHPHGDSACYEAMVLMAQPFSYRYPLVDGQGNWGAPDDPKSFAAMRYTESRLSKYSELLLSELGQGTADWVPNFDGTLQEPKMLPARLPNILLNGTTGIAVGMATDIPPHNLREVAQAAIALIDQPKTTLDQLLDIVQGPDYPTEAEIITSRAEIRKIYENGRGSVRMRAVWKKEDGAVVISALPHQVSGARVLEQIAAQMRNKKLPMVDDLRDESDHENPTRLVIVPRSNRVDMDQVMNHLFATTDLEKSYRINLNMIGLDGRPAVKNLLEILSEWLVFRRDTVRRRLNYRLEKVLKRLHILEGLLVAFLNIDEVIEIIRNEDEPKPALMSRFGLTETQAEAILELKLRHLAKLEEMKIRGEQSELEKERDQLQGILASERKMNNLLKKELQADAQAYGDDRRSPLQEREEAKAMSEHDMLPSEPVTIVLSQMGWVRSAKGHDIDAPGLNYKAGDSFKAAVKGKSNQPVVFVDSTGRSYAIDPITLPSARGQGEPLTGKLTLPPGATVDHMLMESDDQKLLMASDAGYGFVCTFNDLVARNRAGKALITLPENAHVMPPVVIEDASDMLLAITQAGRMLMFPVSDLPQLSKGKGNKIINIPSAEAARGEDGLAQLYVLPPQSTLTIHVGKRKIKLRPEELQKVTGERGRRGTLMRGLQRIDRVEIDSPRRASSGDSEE
Sequence (P20083 whole entry, looked up): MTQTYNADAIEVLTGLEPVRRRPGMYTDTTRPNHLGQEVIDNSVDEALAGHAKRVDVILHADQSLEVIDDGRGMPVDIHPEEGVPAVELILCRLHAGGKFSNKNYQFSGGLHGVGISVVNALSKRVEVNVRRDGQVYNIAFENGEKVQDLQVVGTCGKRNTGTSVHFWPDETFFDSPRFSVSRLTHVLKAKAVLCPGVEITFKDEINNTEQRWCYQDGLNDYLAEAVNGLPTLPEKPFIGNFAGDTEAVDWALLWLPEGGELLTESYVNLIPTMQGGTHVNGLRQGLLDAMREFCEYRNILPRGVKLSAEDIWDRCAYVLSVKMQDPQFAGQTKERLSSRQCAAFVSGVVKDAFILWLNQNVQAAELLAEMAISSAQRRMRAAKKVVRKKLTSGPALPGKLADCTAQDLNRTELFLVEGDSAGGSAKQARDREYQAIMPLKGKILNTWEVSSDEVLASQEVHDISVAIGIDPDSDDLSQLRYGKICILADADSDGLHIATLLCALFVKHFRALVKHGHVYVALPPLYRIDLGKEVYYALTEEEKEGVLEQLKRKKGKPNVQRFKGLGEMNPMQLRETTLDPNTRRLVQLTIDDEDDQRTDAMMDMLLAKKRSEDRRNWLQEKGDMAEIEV
experiment-summary: SDFQ-based DNA relaxation assay with E. coli DNA topoisomerase IV
Format: biochemical
A collection of molecules and their measured IC50
readout-label: IC50 (µM)

                                   molecule  output_unit  reading_qualifier  assay_value
0  CCCCCCCCCCCCOC(=O)c1cc(O)c(O)c(O)c1 [Dodecyl gallate, dodecyl gallate]           µM                  =         36.9
1  CCCCCCCCOC(=O)c1cc(O)c(O)c(O)c1 [Octyl gallate, octyl gallate]           µM                  =         41.2
2  CCCCOC(=O)c1cc(O)c(O)c(O)c1 [Butyl gallate, butyl gallate]           µM                  >          100
3  O=C(O)c1cc(O)c(O)c(OC(=O)c2cc(O)c(O)c(O)c2)c1           µM                  =          7.3
4  O=C(Oc1ccccc1)c1cc(O)c(O)c(O)c1 [Phenyl gallate, phenyl gallate]           µM                  >          100
